Below is a list of entries, each paired with its recorded EC50 value.
system: U87MG human glioma cells; experiment: WST-1 proliferation assay, U87 glioma cells; type: cell-based; conditions: U-87 MG, anti-tumor activity, 48 hours
Give just the numeric value; µM need not be written.

Reported EC50 for CO[C@H]1/C=C/O[C@@]2(C)Oc3c(C)c(O)c4c(O)c(c(/C=N/N5CCN(C)CC5)c(O)c4c3C2=O)NC(=O)/C(C)=C\C=C\[C@H](C)[C@H](O)[C@@H](C)[C@@H](O)[C@@H](C)[C@H](OC(C)=O)[C@@H]1C [Rifampicin] : what is it? 25.4

Reported EC50 for CCCC(=O)SCCNC(=O)CCNC(=O)[C@H](O)C(C)(C)COP(=O)(O)OP(=O)(O)OC[C@H]1O[C@@H](n2cnc3c(N)ncnc32)[C@H](O)[C@@H]1OP(=O)(O)O [Butyryl CoA] : what is it? 20.3

Reported EC50 for O=C(O)Cc1cccc(OCCCN(Cc2cccc(C(F)(F)F)c2Cl)CC(c2ccccc2)c2ccccc2)c1 [GW3965] : what is it? 4.22

Next:
Reported EC50 for COc1ccc2[nH]cc(CCNC(C)=O)c2c1 [Melatonin] : what is it? 18.7
